Where do the numbers come from? From patent US8143403B2.

Listed here are compounds together with their documented log10(IC50).
Target: Human CGRP Receptor (Homo sapiens, UniProt O60894+Q16602)
Construct: Crude membranes were prepared from SK-N-MC cells expressing CGRP receptors; endogenous in cells
Sequence (Q16602 23-461): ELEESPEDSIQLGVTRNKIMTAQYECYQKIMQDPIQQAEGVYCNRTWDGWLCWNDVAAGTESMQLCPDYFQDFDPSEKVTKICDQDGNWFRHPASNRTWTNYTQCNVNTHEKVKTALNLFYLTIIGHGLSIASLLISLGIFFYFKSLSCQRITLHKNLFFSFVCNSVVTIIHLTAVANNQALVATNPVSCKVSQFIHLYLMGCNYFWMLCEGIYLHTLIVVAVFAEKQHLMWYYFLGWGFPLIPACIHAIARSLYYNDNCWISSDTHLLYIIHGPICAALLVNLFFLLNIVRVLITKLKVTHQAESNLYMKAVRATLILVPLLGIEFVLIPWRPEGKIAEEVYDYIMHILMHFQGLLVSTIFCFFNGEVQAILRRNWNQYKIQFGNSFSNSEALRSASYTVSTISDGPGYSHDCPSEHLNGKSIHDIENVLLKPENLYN
Sequence (O60894 27-148): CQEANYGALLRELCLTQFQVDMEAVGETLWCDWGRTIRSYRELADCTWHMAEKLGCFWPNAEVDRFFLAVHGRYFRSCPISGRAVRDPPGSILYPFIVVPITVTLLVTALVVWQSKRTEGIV
Assay: Radioligand binding assay, [125I]-CGRP displacement on SK-N-MC membranes
Conditions: displacement of [125I]-CGRP (18 pM final), 2 h room temperature
All values: base-10 log of IC50 in nM.

A selection of reference data follows.
{"compound": "O=C(O[C@@H]1CC[C@@H](c2cccc(F)c2F)Cc2cccnc21)N1CCC(n2c(=O)[nH]c3ncccc32)CC1 [Example 20]", "log10(IC50)": -0.92}
{"compound": "O=C(O[C@@H]1CC[C@@H](c2cc(F)ccc2F)Cc2cccnc21)N1CCC(n2c(=O)[nH]c3ncccc32)CC1 (racemic) [Example 11]", "log10(IC50)": 0.62}
{"compound": "CC(C)(C)Nc1ccc2c(n1)[C@H](OC(=O)N1CCC(n3c(=O)[nH]c4ncccc43)CC1)CC[C@@H](c1cccc(F)c1F)C2 [Example 16]", "log10(IC50)": 0.84}
{"compound": "O=C(O[C@@H]1CC[C@@H](c2ccccc2)Cc2cccnc21)N1CCC(n2c(=O)[nH]c3ncccc32)CC1 (relative stereo) [Example 10]", "log10(IC50)": 0.95}

Find the measured log10(IC50): item O=C(N[C@@H]1CC[C@@H](c2cccc(F)c2F)Cc2cccnc21)N1CCC(n2c(=O)[nH]c3ncccc32)CC1 (single isomer, unassigned) [Example 8] , target or system Human CGRP Receptor (Homo sapiens, UniProt O60894+Q16602).
0.20
